Field: TGI. Provide a value for each of the molecules that follow.
test system: MOLT-4 leukemia; experiment: NCI tumour cell line growth inhibition, 48 h

• Cc1ccccc1NC(=O)C(=O)CC(=O)c1sc(-n2nc(-c3ccccc3)cc2-c2ccccc2)nc1C = > 100 µM

List the reported TGI of each molecule below.
1. O=C(NCCOC(=O)CCCCCCCCC(=O)OCCNC(=O)NC(=O)c1cn(Cc2ccccc2)c(=O)[nH]c1=O)NC(=O)c1cn(Cc2ccccc2)c(=O)[nH]c1=O
2. c1ccc(-c2nc3ccccc3[nH]2)c(OCCCCCOc2ccccc2-c2nc3ccccc3[nH]2)c1
3. CCCCCCCCCCCCCCCCOC[C@H](COC(c1ccccc1)(c1ccccc1)c1ccccc1)O[P+](=S)OC (stereo not given in full)
4. N#Cc1nc(-c2ccsc2)oc1N
5. CN(C)c1ccc(/C=C2\N=C(c3ccccc3)N(c3nc4ccc(Sc5ccccc5)cc4[nH]3)C2=O)cc1
6. CCOc1ccccc1NC(=O)C1=C(C)NC(C)=C(C(=O)Nc2ccccc2OCC)C1c1ccc2c(c1)OCO2
7. O=C(NCCNC1=CC(=O)c2nc3ccccc3c3ccnc1c23)c1cnccn1

1. > 100 µM
2. 47.5 µM
3. > 100 µM
4. > 100 µM
5. > 100 µM
6. 75.3 µM
7. > 100 µM

###

system: OVCAR-8 ovarian; assay: NCI tumour cell line growth inhibition, 48 h
measured-property: TGI

Observe how each entry below is paired with its result.
- Cc1c(-c2ccccc2)oc(=O)c2ccccc12: 93 µM
- CC(=O)CCN1CC2CN=NC2(C#N)C1 (configuration not stated): > 100 µM
- O=C(O)C1C2OC(C(Br)C2Br)C1C(=O)O (configuration not stated): > 100 µM

Go through the list and state TGI for each entry.
1. COC(=O)c1c2c(cc3c1CC1(Cc4cc5c(cc4C1)CCCC5)C3)CCCC2
2. O=C(CCCCCCCCC(=O)N1C(=O)CC(=O)N(c2ccc(Cl)cc2)C1=S)N1C(=O)CC(=O)N(c2ccc(Cl)cc2)C1=S
3. CN(C)c1ccc(/C=C2\N=C(c3ccccc3)N(c3nc4ccc(Sc5ccccc5)cc4[nH]3)C2=O)cc1

> 100 µM
> 100 µM
> 100 µM

###

For each of the compounds below, state its TGI.
tested on: HCT-15 colon; test: NCI tumour cell line growth inhibition, 48 h
Give bare numbers, in µM.

For every record below, what is its TGI?
1. O=[N+]([O-])/C(=C/C=C/c1ccccc1)c1ccccc1
2. O=C(c1ccccc1)C1C(c2ccccc2[N+](=O)[O-])N1C1CCCCC1 (stereo not given)
3. CCCCCCCCCCCCCCCC[N+](C)(C)CCl
4. C#CCN(CCCOc1ccc(Cl)cc1Cl)CCCSC(=O)CCCCCN1/C(=C\C=C2/CCCC(/C=C/C3=[N+](CCCCCC(=O)[O-])c4ccccc4C3(C)C)=C2Cl)C(C)(C)c2ccccc21
5. COc1cc2c(c(OC)c1OC)-c1ccc(SC)c(=O)cc1C(CC(=O)Oc1ccccc1F)C2 (stereo not given)
6. COc1cc2c(cc1OC)C(Sc1ccc(Cl)cc1)c1c(nc(N)c(C#N)c1N)O2 (stereo not given)

4.22
23
20.9
21.9
0.248
2.66

List TGI for every entry below, keeping the order given.
1. Cc1ncc([N+](=O)[O-])n1CCOc1ccc(C(=O)/C=C/c2ccc(C(F)(F)F)cc2)cc1
2. O=[N+]([O-])C(/C=C(\Cl)[N+](=O)[O-])=C(Nc1ccccc1)Nc1ccccc1

[4.09, 22.3]

###

Would you kindly list TGI for each of these compounds?
test system: RPMI-8226 leukemia; assay: NCI tumour cell line growth inhibition, 48 h

Known results for compounds:
• Cc1cc(C)n(C(C)(C(=O)Cc2ccccc2)n2nc(C)cc2C)n1 = > 100 µM
• CC(C)OC(=O)c1cc(NC(=S)OC(C)C)ccc1Cl = > 76.8 µM
• Cc1ccccc1NC(=O)C(=O)CC(=O)c1sc(-n2nc(-c3ccccc3)cc2-c2ccccc2)nc1C = > 100 µM
• CCOC(=O)NCC(=O)NCC(=O)NCC(N)=O = > 100 µM
• COC(=O)c1c2c(cc3c1CC1(Cc4cc5c(cc4C1)CCCC5)C3)CCCC2 = > 100 µM
• O=C(N[C@H]1CC2(C=C(I)C(=O)C(I)=C2)OC1=O)OCc1ccccc1 = > 100 µM
• Cn1cc(C2=C(c3cccc([N+](=O)[O-])c3)C(=O)NC2=O)c2ccccc21 = > 23.2 µM
• N#Cc1cc2c(n(C3OC(CO)C(O)C(O)C3O)c1=S)CCC2 (stereo not given) = > 100 µM
• c1csc(-c2cc(-c3ccsc3)cs2)c1 = > 100 µM
• CCOc1ccccc1NC(=O)C1=C(C)NC(C)=C(C(=O)Nc2ccccc2OCC)C1c1ccc2c(c1)OCO2 = > 100 µM

// input: 5 compounds below; output: TGI for each
1. COc1cc(C2C3=C(NC(=O)C2C#N)c2ccc4ccccc4c2OCC3)cc(OC)c1OC (stereo not given)
2. Clc1ccc(-c2nn3c(COc4ccc(OCc5nnc6sc(-c7ccc(Cl)cc7)nn56)c(Cl)c4)nnc3s2)cc1
3. CC(C)(C)[C@H]1NC(=O)CN1C(=O)OCc1ccccc1
4. O=C([CH-]C(=O)c1ccccc1)c1ccccc1.[CH2-]C.[CH2-]C.[Tl+3]
5. Cc1nc2sc(C(=O)Nc3cccc(Cl)c3)c(N)c2cc1C(O)c1ccccc1 (stereo not given)

["> 100 µM", "> 100 µM", "> 100 µM", "> 66 µM", "> 100 µM"]

###

test system: PC-3 prostate; test: NCI tumour cell line growth inhibition, 48 h
Record form. Attribute: TGI. Fill in for each entry.
One number for each entry, in µM.

- Nc1nc2c([nH]1)c1[nH]c3ccccc3c1c1[nH]c3ccccc3c21: 23.1

Proceeding to the next compound to report its TGI.
Find the recorded TGI belonging to c1ccc(-c2nc3ccccc3[nH]2)c(OCCCCCOc2ccccc2-c2nc3ccccc3[nH]2)c1 and report it.
96.8

###

system: MOLT-4 leukemia; assay: NCI tumour cell line growth inhibition, 48 h
Provide the recorded TGI for the entries that follow.

Check out these entries, answers already filled in.
- CC(CSc1nc2c(c(=N)n1-c1ccccc1)c(=S)n(-c1ccccc1)c(=S)n2-c1ccccc1)CN(C)C (configuration not stated): 3.02 µM
- CN(C)CCCNC(=O)N/N=C/c1ccccn1: > 10 µM
- Cn1cc(C2=C(c3cccc([N+](=O)[O-])c3)C(=O)NC2=O)c2ccccc21: > 22.8 µM
- Cc1ccc(-n2cc(/C(N)=N/O)c3ccccc3c2=O)cc1: > 100 µM
- Cc1cc(=O)[nH]c2c1C(=O)c1c(C)cc(=O)n(C)c1C2=O: > 3.56 µM
- O=c1[nH]c(NCCCCCO)nc2nc[nH]c12: > 100 µM
- Cn1c(COC(=O)NC2CCCCC2)c(COC(=O)NC2CCCCC2)c2ccc3ccccc3c21: > 100 µM
- COc1ccc2c(c1)CCC1C2CCC2(C)C(NC(=O)CCCCC3CCSS3)CCC12 (configuration not stated): > 100 µM

For every item in the list below, what is its measured TGI?
1. COc1cc(/C=C/C(=O)/C=C/c2ccc(-n3ccnc3)cc2)ccc1O
2. NCC1OC(OC2C(N)CC(N)C(O)C2OC2OC(CO)C(O)C2O)C(N)C(O)C1O (configuration not stated)
3. COc1cc2ccc(C(C)NCC#N)cc2cc1OC (configuration not stated)
4. COc1cc(/C=C2\C(=O)N(c3ccc(Cl)cc3)C(c3ccccc3)S2(=O)=O)cc(OC)c1OC (configuration not stated)

["42.8 µM", "> 100 µM", "> 100 µM", "> 100 µM"]

###

test system: OVCAR-8 ovarian; assay: NCI tumour cell line growth inhibition, 48 h
Would you mind telling me the reported TGI of each entry?

- Clc1ccc(C2=CC(c3ccccc3)N3C(=N[C@H]4CCCC[C@@H]43)N2)cc1 (stereo partly specified): 11.4 µM

Answer for every listed entry: what is its TGI? The entries follow.
1. Nc1cccc(C(=O)/C=C/c2ccccc2O)c1
2. Nc1nc2c([nH]1)c1[nH]c3ccccc3c1c1[nH]c3ccccc3c21
3. CSc1ccc2c(c1)N(CCCN(C)C)c1ccccc1S2
4. Cc1cccc(NC(=O)CSc2nnc(-c3ccc(N=Cc4ccc(Cl)cc4)cc3)o2)c1

1. > 100 µM
2. 23.7 µM
3. 36.1 µM
4. > 100 µM

// each compound listed below needs its TGI
1. CCOC(=O)c1cnc2c(ccc3ncccc32)c1OCC
2. CCOC1OC(C)(C=C(C#N)C#N)CCC1C (stereo unspecified)
3. c1ccc2[nH]c(-c3cscn3)nc2c1
4. Cc1ccccc1NC(=O)C(=O)CC(=O)c1sc(-n2nc(-c3ccccc3)cc2-c2ccccc2)nc1C
5. Cn1cc(C2=C(c3cccc([N+](=O)[O-])c3)C(=O)NC2=O)c2ccccc21

1. > 100 µM
2. > 68 µM
3. > 100 µM
4. > 100 µM
5. > 22.4 µM

For COc1ccc(C2NC(c3ccc(OC)cc3)C(C)C(=O)C2C)cc1 (stereo unspecified) , what is its reported TGI?
> 100 µM
